These data points were gathered from patent US11884675B2.

targetSystem: hTREM2 (Homo sapiens)
Sequence (Q9NZC2 19-230): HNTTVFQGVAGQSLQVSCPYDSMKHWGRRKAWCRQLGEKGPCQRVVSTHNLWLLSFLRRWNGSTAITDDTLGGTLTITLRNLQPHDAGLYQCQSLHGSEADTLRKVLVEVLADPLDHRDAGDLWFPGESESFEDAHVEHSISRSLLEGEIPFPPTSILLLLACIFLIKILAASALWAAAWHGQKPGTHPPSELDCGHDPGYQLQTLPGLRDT
Sequence (O43914 22-113 partner): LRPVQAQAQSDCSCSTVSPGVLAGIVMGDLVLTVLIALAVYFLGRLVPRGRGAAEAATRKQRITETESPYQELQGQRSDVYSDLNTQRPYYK
testDetails: TREM2 agonist potency by Syk phosphorylation (AlphaLisa) in HEK293T-hTREM2 cells, used for Examples 306-429
Format: cell-based
Parameters: expressed in transfected cells; host or cells: HEK293T (HEK293T-hTREM2 cells)
conditionInfo: HEK293 Cells
pEC50: −log10 of the molar value.

# compound, targetSystem, pEC50
records = [
    ("Cc1cc(C2CC(c3nc(-c4ccc(C(F)(F)F)nc4)c4ccc(C)nc4n3)CCO2)ccn1 (stereo not shown) [Example 324]", "hTREM2 (Homo sapiens)", "6.30 to 7.30"),
    ("Cc1nc2nc(N3C[C@@H](C)O[C@@H](c4cnn(C5CC5)c4)C3)nc(-c3ccc(Cl)cc3F)c2nc1C [Example 425]", "hTREM2 (Homo sapiens)", "≥ 7.30"),
    ("Cc1cc([C@H]2C[C@H](c3cc4nc(C)c(C)nc4c(-c4ccc(C(F)(F)F)nc4)n3)CCO2)ccn1 (racemic) [Example 306]", "hTREM2 (Homo sapiens)", "6.30 to 7.30"),
    ("Cc1cc(C2CN(c3cc4nc(C)cnc4c(-c4ccc(C(F)(F)F)nc4)n3)CCO2)ccn1 (stereo not shown) [Example 311]", "hTREM2 (Homo sapiens)", "6.30 to 7.30"),
    ("Cc1nc2cc(N3CC(C)OC(c4cnn(C5CC5)c4)C3)nc(-c3ccc(Cl)cc3F)c2nc1C (stereo not shown) [Example 367]", "hTREM2 (Homo sapiens)", "6.30 to 7.30"),
    ("Cc1cnc2c(-c3ccc(Cl)cc3F)nc(N3C[C@H](C)O[C@@H](c4cnn(C5CC5)c4)C3)nc2n1 (racemic) [Example 374]", "hTREM2 (Homo sapiens)", "≥ 7.30"),
    ("Cc1cc([C@@H]2CN(c3nc(-c4cc(F)c(Cl)cc4F)c4nc(C)c(C)nc4n3)CCO2)ccn1 [Example 391]", "hTREM2 (Homo sapiens)", "≥ 7.30"),
    ("Cc1nc2nc(N3C[C@H](C)O[C@@H](c4cnn(C5CC5)c4)C3)nc(C34CC(C(F)(F)F)(C3)C4)c2nc1C [Example 408]", "hTREM2 (Homo sapiens)", "≥ 7.30"),
    ("Cc1nc2cc([C@H]3CCO[C@@H](c4cnn(C5CC5)c4)C3)nc(C34CC(C(F)(F)F)(C3)C4)c2nc1C (mixture of isomers) [Example 392]", "hTREM2 (Homo sapiens)", "≥ 7.30"),
    ("Cc1cc(C2CN(c3cc4nc(C)c(C)cc4c(-c4ccc(C(F)(F)F)nc4)n3)CCO2)ccn1 (stereo not shown) [Example 347]", "hTREM2 (Homo sapiens)", "≥ 7.30"),
    ("Cc1cc(C2CN(c3nc(-c4ccc(Cl)cc4C(F)(F)F)c4nc(C)c(C)nc4n3)CCO2)ccn1 (stereo not shown) [Example 343]", "hTREM2 (Homo sapiens)", "6.30 to 7.30"),
    ("Cc1cc(C2CC(c3cc4nc(C)c(C)cc4c(-c4ccc(F)cc4F)n3)CCO2)ccn1 (stereo not shown) [Example 328]", "hTREM2 (Homo sapiens)", "≥ 7.30"),
    ("Cc1cc([C@H]2C[C@@H](c3cc4nc(C)cnc4c(-c4ccc(F)cc4F)n3)CCO2)ccn1 (racemic) [Example 307]", "hTREM2 (Homo sapiens)", "6.30 to 7.30"),
    ("Cc1nc2cc(N3C[C@@H](C)O[C@@H](c4cnn(C5CC5)c4)C3)nc(C34CC(C(F)(F)F)(C3)C4)c2nc1C (racemic) [Example 379]", "hTREM2 (Homo sapiens)", "6.30 to 7.30"),
    ("Cc1cnc2c(-c3ccc(F)cc3F)nc(N3C[C@@H](C)O[C@@H](c4cnn(C5CC5)c4)C3)nc2n1 [Example 420]", "hTREM2 (Homo sapiens)", "≥ 7.30"),
    ("Cc1cc(C2CN(c3cc4nc(C)cnc4c(-c4ccc(F)cc4F)n3)CCO2)ccn1 (stereo not shown) [Example 313]", "hTREM2 (Homo sapiens)", "≥ 7.30"),
    ("Cc1cnc2c(-c3ccc(Cl)cc3F)nc([C@@H]3CCO[C@@H](c4cnn(C5CC5)c4)C3)nc2n1 [Example 350]", "hTREM2 (Homo sapiens)", "5.52 to 6.30"),
    ("Cc1nc2cc(N3C[C@@H](C)O[C@@H](c4cnn(C5CC5)c4)C3)nc(-c3ccc(F)cc3F)c2nc1C [Example 403]", "hTREM2 (Homo sapiens)", "6.30 to 7.30"),
    ("Cc1cnc2c(C34CC(C(F)(F)F)(C3)C4)nc(N3C[C@H](C)O[C@@H](c4cnn(C5CC5)c4)C3)nc2n1 [Example 404]", "hTREM2 (Homo sapiens)", "≥ 7.30"),
    ("Cc1nc2cc(N3CCO[C@@H](c4cnn(C5CC5)c4)C3)nc(-c3ccc(C(F)(F)F)nc3)c2nc1C [Example 384]", "hTREM2 (Homo sapiens)", "≥ 7.30"),
    ("Cc1cc(C2CC(c3cc4nc(C)c(C)cc4c(-c4ccc(Cl)cc4F)n3)CCO2)ccn1 (stereo not shown) [Example 327]", "hTREM2 (Homo sapiens)", "≥ 7.30"),
    ("Cc1nc2cc(N3CCOC(c4cnn(C5CC5)c4)C3)nc(-c3ccc(F)cc3F)c2nc1C (stereo not shown) [Example 342]", "hTREM2 (Homo sapiens)", "≥ 7.30"),
    ("Cc1ccc2c(C34CC(C(C)C)(C3)C4)nc([C@H]3CCO[C@@H](c4cnn(C5CC5)c4)C3)nc2n1 [Example 428]", "hTREM2 (Homo sapiens)", "6.30 to 7.30"),
    ("Cc1cnc2c(-c3ccc(F)cc3F)nc(N3C[C@@H](C)O[C@@H](c4cnn(C5CC5)c4)C3)nc2n1 (racemic) [Example 371]", "hTREM2 (Homo sapiens)", "≥ 7.30"),
    ("Cc1cnc2c(-c3ccc(F)cc3F)nc([C@H]3C[C@@H](C)O[C@@H](c4cnn(C5CC5)c4)C3)nc2n1 [Example 415]", "hTREM2 (Homo sapiens)", "6.30 to 7.30"),
    ("Cc1cc([C@H]2CN(c3cc4nc(C)cnc4c(-c4ccc(F)cc4F)n3)CCO2)ccn1 [Example 334]", "hTREM2 (Homo sapiens)", "≥ 7.30"),
    ("Cc1nc2cc(N3C[C@@H](c4cnn(C5CC5)c4)O[C@@H](C)C3)nc(-c3ccc(F)cc3F)c2nc1C [Example 398]", "hTREM2 (Homo sapiens)", "≥ 7.30"),
    ("COc1cc(C2CN(c3nc(-c4ccc(Cl)cc4F)c4nc(C)c(C)nc4n3)CCO2)ccn1 (stereo not shown) [Example 314]", "hTREM2 (Homo sapiens)", "≥ 7.30"),
]
